molecular target: T1, human SIRPγ isoform 1 (human, UniProt Q9P1W8 29-147); experiment: SPR, Langmuir fit
T1 construct: also called SIRPg; sirpg
T1 sequence (Q9P1W8 29-147 limits assumed): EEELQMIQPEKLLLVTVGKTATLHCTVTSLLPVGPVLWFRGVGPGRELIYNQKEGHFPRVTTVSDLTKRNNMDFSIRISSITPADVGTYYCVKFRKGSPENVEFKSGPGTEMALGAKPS
// boundary case: koff equal to 0.0002 s⁻¹ maps to not fulfilled; strictly smaller maps to fulfilled

The examples below pair each entry with its known result.
| BINDER | CLASS_ASSIGNMENT |
| --- | --- |
| S206 (scFv, V domains shown) VH: DVQLVESGGAVVRPGETLRLSCTASGFTFSSYAMSWVRQAPGKGLEWVSGISASGSDTYYADSVKGRSTISRDNSKNTLYLRMSSLTAEDTAVYYCARETWNHLFDYWGLGTLVTLSS VL: ALTQPASVSANPGETVKITCSGGGTSSYYGWYQQKSPGSAPVTLIHSDDKRPSDIPSRFSGSASGSTATLTITGVQAEDEAVYYCGGYDYTTYVNTFGAGTTLTVL | fulfilled |
| S164 (scFv, V domains shown) VH: DVQLVESGGGLVRPGESLRLSCAASGFTFTNYAVTWVRQAPGEGLEWVSLISVTGTTYYADSVKGRFTISRDNSKSTLYLQMNGLRAEDTAVYYCAKVTWKNVFDYWGLGTLVTVSS VL: EIVLTQSPGTLSVSPGERATFSCRASQTVGSKLAWYQQKPGQAPRLLIYDANTRATGIPARFSGSRSGTEFTLTISSLQSEDFAVYYCQQHTDWPPYTFGGGTKVEIK | not fulfilled |
| S201 (scFv, V domains shown) VH: DVQLVESGGAVVRPGETLRLSCTASGFTFSSYAMSWVRQAPGKGLEWVSGISASGSDTYYADSVKGRSTISRDNSKNTLYLRMSSLTAEDTAVYYCARETWNHLFDYWGLGTLVTVSS VL: ALTQPASVSANPGETVKITCSGGGTSSYYGWYQQKSPGSAPVTLIHSDDKRPSDIPSRFSGSASGSTATLTITGVQVEDEAVYYCGGYDYTTYVNTFGAGTTLTVL | fulfilled |
| S22 (scFv, V domains shown, also called clone 22) VH: DVQLVESGGGVVRPGESLRLSCAASGFTFSSYAMSWVRQAPGKGLEWLAGISAGGSDTYYIDSVKGRFTISRRQFQEQSLSPNEPALTAEDTAVYYCARETWNHLFDYWGLGTLVTVSS VL: ALTQPASVSANPGETVKITCSGGDYYSTYYGWYQQKSPGSAPVTVIHSDDKRPSDIPSRFSGSASGSAATLTIAGVRVEDEAVYFCGAYDGRTYINTFGAGTTLTVL | fulfilled |

Would you kindly look at the next entry?
Here's an entry: S30 (scFv, V domains shown, also called clone 30) VH: DVQLVESGGGVVRPGESLRLSCEASGFTFSSDAMSWVRQAPGKGLEWVSGISSGSSTYYGGSVKGRFTISRDNSKNTLYLQMNSLTAEDTAVYYCARETWNHLFDYWGLGTLVTVSS VL: ALTQPASVSASPGETVEITCSGGSDSSYYYGWYQQKSPGSAPVTVIYSDNKRPSNIPSRFSGSASGSTATLTITGVRVEDEAVYYCGGYDYSTYTNPFGAGTTLTVL . Is its koff below 0.0002 s⁻¹?
fulfilled
